species on record: Rattus norvegicus; experiment: Open TG-GATES - Regimen: Daily Repeat; type: toxicity, organism-based, Sprague-Dawley; parameters: regimen Daily Repeat, gender Male, age 6 weeks; details: in vivo, po, 0 mg/kg, […], tissue Plasma, route gavage, dose level Control, time 14 day
metric: CRE (mg/dL)

>  <compound>
CN(CCOc1ccc(CC2SC(=O)NC2=O)cc1)c1ccccn1.O=C(O)/C=C\C(=O)O (stereo not drawn) [ROSIGLITAZONE MALEATE]

>  <metric>
CRE

>  <unit_annotation>
mg/dL

>  <result_number>
0.4

$$$$
>  <compound>
Nc1ccc(Cc2ccc(N)cc2)cc1

>  <metric>
CRE

>  <unit_annotation>
mg/dL

>  <result_number>
0.2

$$$$
>  <compound>
CC(S)C(=O)NCC(=O)O (stereo not drawn)

>  <metric>
CRE

>  <unit_annotation>
mg/dL

>  <result_number>
0.2

$$$$
>  <compound>
CCCCC1C(=O)N(c2ccccc2)N(c2ccccc2)C1=O

>  <metric>
CRE

>  <unit_annotation>
mg/dL

>  <result_number>
0.6

$$$$
>  <compound>
CN(C/C=C/C#CC(C)(C)C)Cc1cccc2ccccc12

>  <metric>
CRE

>  <unit_annotation>
mg/dL

>  <result_number>
0.4

$$$$
>  <compound>
CCO

>  <metric>
CRE

>  <unit_annotation>
mg/dL

>  <result_number>
0.5

$$$$
>  <compound>
COc1ccc([C@@H]2Sc3ccccc3N(CCN(C)C)C(=O)[C@@H]2OC(C)=O)cc1

>  <metric>
CRE

>  <unit_annotation>
mg/dL

>  <result_number>
0.2

$$$$
>  <compound>
CC(=O)[C@@]1(O)CC[C@H]2[C@@H]3C=C(Cl)C4=CC(=O)CC[C@]4(C)[C@H]3CC[C@@]21C

>  <metric>
CRE

>  <unit_annotation>
mg/dL

>  <result_number>
0.2

$$$$
>  <compound>
CCN(CC)C(=S)SSC(=S)N(CC)CC

>  <metric>
CRE

>  <unit_annotation>
mg/dL

>  <result_number>
0.2

$$$$
>  <compound>
CCCCNC(=O)NS(=O)(=O)c1ccc(C)cc1 [TOLBUTAMIDE]

>  <metric>
CRE

>  <unit_annotation>
mg/dL

>  <result_number>
0.2

$$$$
>  <compound>
O=c1ccc2ccccc2o1

>  <metric>
CRE

>  <unit_annotation>
mg/dL

>  <result_number>
0.6

$$$$
>  <compound>
NS(=O)(=O)c1cc(C(=O)O)c(NCc2ccco2)cc1Cl [FUROSEMIDE]

>  <metric>
CRE

>  <unit_annotation>
mg/dL

>  <result_number>
0.2

$$$$
>  <compound>
O=C(O)c1ccccc1Nc1ccccc1

>  <metric>
CRE

>  <unit_annotation>
mg/dL

>  <result_number>
0.3

$$$$
